Experiment: Pharmacokinetic evaluation following a single oral and intravenous administration
Format: in vivo, CD1 mouse
Conditions: CD1, mouse, plasma, iv, 1 mg/kg, Table 10, IV Dose: 1 mg/kg, Mouse 2; read-out: AUClast
Assay Endpoint: AUC(0-t) (ng·h/mL)
Give the value in ng·h/mL but do not write ng·h/mL after it.

Query :: I'd like to know its AUC(0-t). The compound in question is CC(=O)N[C@@H](Cc1ccc(CN(C)C)cc1)c1nnc(-c2cccc(OC(F)(F)F)c2)s1
Result :: 153

----------
Assay: Pharmacokinetic evaluation following a single oral and intravenous administration
Assay type: in vivo, CD1 mouse
Details: Table 4, IV Dose: 1 mg/kg, Mouse 3
Assay Endpoint: AUClast/D (h·ng/mL per mg/kg)
Write the answer as a number in h·ng/mL per mg/kg, unit excluded.

Query :: Which measured AUClast/D value corresponds to CNCc1ccc(C[C@H](NC(C)=O)c2nnc(-c3cccc(OC(F)(F)F)c3)s2)cc1 ?
Result :: 394

----------
Assay: Pharmacokinetic evaluation following a single oral and intravenous administration
Type: in vivo, CD1 mouse
Details: CD1, mouse, plasma, iv, 1 mg/kg, Table 4, IV Dose: 1 mg/kg, Mouse 1; read-out: T1/2 (converted)
Assay Endpoint: half-life (h)
Kindly provide the numeric value in h only, without the unit symbol.

Query :: Quick one: half-life of CNCc1ccc(C[C@H](NC(C)=O)c2nnc(-c3cccc(OC(F)(F)F)c3)s2)cc1 ?
Result :: 10.3

----------
Assay: Pharmacokinetic evaluation following a single oral and intravenous administration
Format: in vivo, CD1 mouse
Conditions: CD1, mouse, plasma, iv, 1 mg/kg, Table 9, IV Dose: 1 mg/kg, 2 h, Mouse 2; read-out: Concentration
Assay Endpoint: concentration at 2 h (ng/mL)
Provide the reading as a plain figure in ng/mL.

Query :: For CC(=O)N[C@@H](Cc1ccc(CN(C)C)cc1)c1nnc(-c2cccc(OC(F)(F)F)c2)s1 [Compound 42320] , what is its reported concentration at 2 h?
Result :: 23.9

----------
Experiment: Pharmacokinetic evaluation following a single oral and intravenous administration
Format: in vivo, CD1 mouse
Conditions: CD1, mouse, plasma, iv, 1 mg/kg, Table 4, IV Dose: 1 mg/kg, Mouse 2; read-out: Vss—obs
Assay Endpoint: Vd (L/kg)
Please respond with the number in L/kg and leave the unit unwritten.

Query :: Please report the recorded Vd for CNCc1ccc(C[C@H](NC(C)=O)c2nnc(-c3cccc(OC(F)(F)F)c3)s2)cc1 [Compound 42140] .
Result :: 28.1

----------
Assay: Pharmacokinetic evaluation following a single oral and intravenous administration
Format: in vivo, CD1 mouse
Details: CD1, mouse, plasma, iv, 1 mg/kg, Table 4, IV Dose: 1 mg/kg, Mouse 3; read-out: Vss—obs
Assay Endpoint: Vd (L/kg)
Hi! Could you send only the number? It should be in L/kg, unit omitted.

Query :: # Vd lookup, item CNCc1ccc(C[C@H](NC(C)=O)c2nnc(-c3cccc(OC(F)(F)F)c3)s2)cc1 [Compound 42140]
Result :: 21.8

----------
Test: Pharmacokinetic evaluation following a single oral and intravenous administration
Type: in vivo, CD1 mouse
Details: CD1, mouse, plasma, po, 5 mg/kg, Table 12, PO Dose: 5 mg/kg, Mouse 4; read-out: Cmax
Assay Endpoint: Cmax (ng/mL)
Give the value, in units of ng/mL, as a plain number.

Query :: Query (compound): CC(=O)N[C@@H](Cc1ccc(CN(C)C)cc1)c1nnc(-c2cccc(OC(F)(F)F)c2)s1 ; field requested: Cmax
Result :: 201

----------
Below is a list of entries, each paired with its recorded IC50 value.
Biological target: (Homo sapiens)
Sequence (P07996 whole entry): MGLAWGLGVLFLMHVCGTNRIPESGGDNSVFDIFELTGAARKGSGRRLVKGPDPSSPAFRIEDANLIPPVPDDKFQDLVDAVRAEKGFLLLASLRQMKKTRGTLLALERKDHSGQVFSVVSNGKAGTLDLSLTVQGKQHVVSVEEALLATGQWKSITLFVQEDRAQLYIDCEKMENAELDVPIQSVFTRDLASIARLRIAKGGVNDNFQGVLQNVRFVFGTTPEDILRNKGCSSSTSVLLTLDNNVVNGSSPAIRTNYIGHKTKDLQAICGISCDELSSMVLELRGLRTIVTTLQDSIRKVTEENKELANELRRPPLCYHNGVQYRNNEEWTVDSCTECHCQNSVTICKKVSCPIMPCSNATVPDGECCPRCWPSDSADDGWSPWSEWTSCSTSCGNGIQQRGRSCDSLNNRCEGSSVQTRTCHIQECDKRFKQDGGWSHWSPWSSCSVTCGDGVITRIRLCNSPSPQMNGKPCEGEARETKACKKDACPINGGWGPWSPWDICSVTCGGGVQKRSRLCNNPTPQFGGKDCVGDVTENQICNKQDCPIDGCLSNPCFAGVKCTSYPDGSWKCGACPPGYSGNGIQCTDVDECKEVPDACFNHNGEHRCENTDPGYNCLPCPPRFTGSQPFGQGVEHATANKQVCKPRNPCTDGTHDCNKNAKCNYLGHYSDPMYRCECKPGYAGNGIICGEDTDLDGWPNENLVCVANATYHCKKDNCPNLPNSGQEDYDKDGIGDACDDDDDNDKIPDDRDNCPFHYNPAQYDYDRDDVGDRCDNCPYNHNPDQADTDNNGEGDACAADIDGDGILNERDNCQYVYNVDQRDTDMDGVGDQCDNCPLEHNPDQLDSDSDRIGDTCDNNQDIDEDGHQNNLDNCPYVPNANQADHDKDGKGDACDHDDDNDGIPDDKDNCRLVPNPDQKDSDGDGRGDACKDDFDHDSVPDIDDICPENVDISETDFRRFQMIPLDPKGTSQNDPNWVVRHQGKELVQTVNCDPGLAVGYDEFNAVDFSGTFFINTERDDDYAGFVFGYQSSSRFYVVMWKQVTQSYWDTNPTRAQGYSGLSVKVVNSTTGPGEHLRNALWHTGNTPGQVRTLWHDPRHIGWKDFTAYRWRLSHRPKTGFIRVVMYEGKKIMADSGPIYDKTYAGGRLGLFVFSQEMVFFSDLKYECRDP
Assay: Secondary Assay, inhibitory activity of thiadiazole and oxadiazole analogs as TGF-beta inhibitors
Assay type: biochemical
Conditions: Table II
Number in nM, nothing else.

Query :: State its IC50 on (Homo sapiens): CC(=O)NC(CCCCN)c1nnc(C2CCCCC2)s1 (centres unmarked) [Compound 39139]
Result :: 13

Attention now turns to another entry.
Query :: Provide the documented IC50 with (Homo sapiens) as the system for CC(=O)NC(CCCCN)c1nnc(-c2ccc(F)cc2)s1 (centres unmarked) [Compound 39261]
Result :: 324

----------
Items are presented alongside their recorded IC50.
Biological target: UniProt P07996
Assay: Secondary Assay, inhibitory activity of thiadiazole and oxadiazole analogs as TGF-beta inhibitors
Type: biochemical
Settings: Table I

Query :: What reported IC50 corresponds to CNCc1ccc(C[C@H](NC(C)=O)c2nnc(-c3cccc(OC(F)(F)F)c3)s2)cc1 [Compound 42140] on UniProt P07996?
Result :: 51 nM

Query :: Notebook: pull reported IC50 for UniProt P07996, entry COc1cc(-c2nnc(C(Cc3ccc(CN)cc3)NC(C)=O)s2)cc(C(F)(F)F)c1 (centres unmarked) [Compound 42330]
Result :: 6 nM

***
Query :: Param readout= IC50; system= UniProt P07996; entry= CC(=O)NC(Cc1ccc(CN)cc1)c1nnc(-c2ccc(F)cc2)s1 (centres unmarked) [Compound 40051] ; returns value.
Result :: 49 nM

Query :: Query the reported IC50 for UniProt P07996; item: CC(=O)NC(Cc1ccc(CN)cc1)c1nnc(-c2cc(C)cc(OC(F)(F)F)c2)s1 (centres unmarked) [Compound 42470]
Result :: 8 nM

Query :: # query: IC50 | item CC(=O)N[C@@H](Cc1ccc(CN(C)C)cc1)c1nnc(-c2cccc(OC(F)(F)F)c2)s1 [Compound 42320] | system: UniProt P07996
Result :: 2 nM

----------
Experiment: Pharmacokinetic evaluation following a single oral and intravenous administration
Type: in vivo, CD1 mouse
Conditions: CD1, mouse, plasma, iv, 1 mg/kg, Table 9, IV Dose: 1 mg/kg, 1 h, mean; read-out: Concentration, Mean
Assay Endpoint: concentration at 1 h (ng/mL)
Quick reminder: number only, in ng/mL, skip the unit.

Query :: Entry CC(=O)N[C@@H](Cc1ccc(CN(C)C)cc1)c1nnc(-c2cccc(OC(F)(F)F)c2)s1 : reported concentration at 1 h = ?
Result :: 42.6

----------
Experiment: Pharmacokinetic evaluation following a single oral and intravenous administration
Assay type: in vivo, CD1 mouse
Conditions: CD1, mouse, plasma, iv, 1 mg/kg, Table 9, IV Dose: 1 mg/kg, 5 min, Mouse 1; read-out: Concentration
Assay Endpoint: concentration at 5 min (ng/mL)
Write the value in ng/mL as a bare number.

Query :: Any idea what concentration at 5 min was measured for CC(=O)N[C@@H](Cc1ccc(CN(C)C)cc1)c1nnc(-c2cccc(OC(F)(F)F)c2)s1 ?
Result :: 86.9

----------
Assay: Pharmacokinetic evaluation following a single oral and intravenous administration
Format: in vivo, CD1 mouse
Details: CD1, mouse, plasma, po, 5 mg/kg, Table 5, PO Dose: 5 mg/kg, 0.25 h, mean; read-out: Concentration, Mean
Assay Endpoint: concentration at 0.25 h (ng/mL)
Quick note: give the figure in ng/mL, leave out the unit.

Query :: Look up concentration at 0.25 h for this molecule: CNCc1ccc(C[C@H](NC(C)=O)c2nnc(-c3cccc(OC(F)(F)F)c3)s2)cc1
Result :: 62.7

----------
Assay: Pharmacokinetic evaluation following a single oral and intravenous administration
Assay type: in vivo, CD1 mouse
Details: CD1, mouse, plasma, iv, 1 mg/kg, Table 10, IV Dose: 1 mg/kg, Mouse 1; read-out: Vss—obs
Assay Endpoint: Vd (L/kg)
Note: unit L/kg is implicit; provide only the numeric part.

Query :: Query (molecule): CC(=O)N[C@@H](Cc1ccc(CN(C)C)cc1)c1nnc(-c2cccc(OC(F)(F)F)c2)s1 [Compound 42320] ; field requested: Vd
Result :: 14.6

----------
Test: Pharmacokinetic evaluation following a single oral and intravenous administration
Assay type: in vivo, CD1 mouse
Conditions: CD1, plasma; Table 6, PO Dose: 5 mg/kg, Mouse 4
Assay Endpoint: Tmax (h)
Please state the figure in h; there is no need to write the unit.

Query :: Field request: Tmax | item: CNCc1ccc(C[C@H](NC(C)=O)c2nnc(-c3cccc(OC(F)(F)F)c3)s2)cc1
Result :: 2

----------
Assay: Pharmacokinetic evaluation following a single oral and intravenous administration
Type: in vivo, CD1 mouse
Details: CD1, mouse, plasma, po, 5 mg/kg, Table 5, PO Dose: 5 mg/kg, 4 h, Mouse 4; read-out: Concentration
Description: A NMP stock solution was prepared by adding 1.136 mL of NMP to 5.68 mg of compound no. 42140 with vortexing and sonification, to obtain a solution with a concentration at 5 mg/mL of 42140:01. Next, to prepare an intravenous formulation, 0.100 mL of the 5 mg/mL stock solution was placed in a new vial. 0.100 mL of NMP and 0.400 mL of PEG400 were added with vortexing and sonification, followed by addition of 0.400 mL of saline with vortexing and sonification. […] 42140:01. […]
Assay Endpoint: concentration at 4 h (ng/mL)
Write the value in ng/mL as a bare number.

Query :: Consider the compound shown here: CNCc1ccc(C[C@H](NC(C)=O)c2nnc(-c3cccc(OC(F)(F)F)c3)s2)cc1 [Compound 42140] What is its recorded concentration at 4 h?
Result :: 103

Cited source: patent US11033535B2
